# TARGET_ENTITY: G-protein coupled receptor 84 (Homo sapiens)
# Sequence (Q9NQS5 whole entry): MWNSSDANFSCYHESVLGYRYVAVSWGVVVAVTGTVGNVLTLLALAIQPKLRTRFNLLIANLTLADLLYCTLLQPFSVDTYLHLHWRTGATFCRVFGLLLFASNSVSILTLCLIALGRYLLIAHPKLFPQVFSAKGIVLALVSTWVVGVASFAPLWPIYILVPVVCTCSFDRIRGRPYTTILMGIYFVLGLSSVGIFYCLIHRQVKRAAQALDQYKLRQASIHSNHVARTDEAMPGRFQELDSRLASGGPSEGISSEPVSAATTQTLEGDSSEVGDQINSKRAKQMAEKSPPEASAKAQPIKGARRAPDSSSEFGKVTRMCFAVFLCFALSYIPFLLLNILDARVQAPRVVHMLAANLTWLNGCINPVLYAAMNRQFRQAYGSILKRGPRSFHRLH
# METHOD_SUMMARY: Agonist activity at GPR84 (unknown origin) expressed in HEK293 cells coexpressing Galpha16 protein by Fluo-4 AM dye based calcium mobilization assay
# Assay type: functional, cell-based
READOUT_LABEL: EC50

Example cases with answers are listed next.
1) Cc1cc(O)nc(SCCCCc2ccccc2)n1    > 100 µM
2) CCCCCCSc1nc(O)cc(=O)n1C    > 100 µM
3) CCCCCCSc1nc(O)cc(=O)n1Cc1ccccc1    > 100 µM
4) Cc1c(O)nc(SCCCCc2ccccc2)nc1O    > 100 µM

## Task Need EC50 of Oc1cc(C(F)(F)F)nc(SCCCCc2ccccc2)n1 , thanks.
## Result > 100 µM

## Task And the next one, CCCCCCSc1nc(OCCCCCCCO)cc(=O)[nH]1 ?
## Result > 100 µM

## Task And what about the compound Nc1cc(O)nc(SCCCCc2ccccc2)n1 ?
## Result > 100 µM

## Task What do we get for Nc1cc(N)nc(SCCCCc2ccccc2)n1 ?
## Result > 100 µM

## Task Try this compound next: OCCCCCCCCSc1nc(O)cc(O)n1
## Result > 100 µM

## Task Another compound to check: CC/C=C\CCSc1nc(O)cc(O)n1
## Result 0.938 µM

---

# TARGET_ENTITY: Free fatty acid receptor 3 (Homo sapiens)
# Sequence (O14843 whole entry): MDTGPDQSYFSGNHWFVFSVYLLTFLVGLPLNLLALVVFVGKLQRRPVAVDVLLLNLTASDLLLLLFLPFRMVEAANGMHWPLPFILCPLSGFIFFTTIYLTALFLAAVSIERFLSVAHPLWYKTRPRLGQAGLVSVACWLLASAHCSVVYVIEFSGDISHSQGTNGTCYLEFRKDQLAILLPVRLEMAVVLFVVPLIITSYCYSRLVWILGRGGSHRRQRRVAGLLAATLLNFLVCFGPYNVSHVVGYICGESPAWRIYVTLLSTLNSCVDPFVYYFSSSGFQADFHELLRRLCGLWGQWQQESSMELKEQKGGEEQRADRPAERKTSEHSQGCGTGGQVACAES
# METHOD_SUMMARY: Agonist activity at GPR41 (unknown origin) by Fluo-4 AM dye based calcium mobilization assay
READOUT_LABEL: EC50 (µM)
Report as a plain number; the unit µM is understood.

## Task So what's the measured EC50 for this one? CCCC(=O)[O-].[Na+] [SODIUM BUTYRATE]
## Result 10.1

---

# METHOD_SUMMARY: Cmax in ICR mouse plasma at 10 mg/kg, po administered through gavage measured up to 24 hrs post dose by LC-MS/MS analysis
# Format: ADME, organism-based
# Parameters: dose 10 mg/kg, route oral
READOUT_LABEL: Cmax (ng/mL)
Numbers only; they are read as ng/mL.

## Task Return reported Cmax; argument: CCCCCCCCCc1cc(O)cc(O)n1
## Result 229

---

# METHOD_SUMMARY: AUC (0 to t) in ICR mouse plasma at 10 mg/kg, po administered through gavage measured up to 24 hrs post dose by LC-MS/MS analysis
# Type: ADME, organism-based
# Parameters: time < 24 hr, dose 10 mg/kg, route oral
READOUT_LABEL: AUC(0-t) at 24 h (µg·h/mL)
Please reply with the bare figure in µg·h/mL and do not write the unit itself.

## Task Item under review: CCCCCCCCCc1cc(O)cc(O)n1 . Reported AUC(0-t) at 24 h?
## Result 0.399

---

# METHOD_SUMMARY: Oral bioavailability in ICR mouse at 10 mg/kg administered through gavage measured up to 24 hrs post dose by LC-MS/MS analysis
# Type: ADME, organism-based
# PARTICULARS: in vivo
READOUT_LABEL: bioavailability (%)
Numbers only here, please. The scale is %.

## Task Form field: reported bioavailability of CCCCCCCCCc1cc(O)cc(O)n1
## Result 24.3

---

compounds and their reported pEC50
# TARGET_ENTITY: UniProt:Q9NQS5
# METHOD_SUMMARY: Agonist activity at GPR84 (unknown origin) expressed in HEK293 cells coexpressing Galpha16 protein by Fluo-4 AM dye based calcium mobilization assay
Remember the convention: pEC50 equals -log10 of concentration in molar.

1) CCCCCCc1nc(O)cc(O)n1    6.34

From here, focus on the item given below.
## Task Lab request: please report pEC50 under test system UniProt:Q9NQS5 for C#CCCSc1nc(O)cc(O)n1
## Result 5.05
